Taken from paper PMC12668308.

System: Dd2b2^pfmdr1 K1065N
Format: cell-based, Plasmodium falciparum
Run parameters: Dd2b2^pfmdr1 K1065N vs Dd2b2^WT
Observable: IC50 fold shift relative to parental clone
Respond numerically, and do not add a unit to the figure.

Compound	Numeric readout
CCN(CC)Cc1ccc(O)c(NC(=O)c2cccc(Oc3cc(C(F)(F)F)ccn3)c2)c1 [Compound 27]	9.4

Incoming: What value of IC50 fold shift relative to parental clone has been recorded for this entry: CCCCN(CCCC)CC(O)c1cc(Cl)cc2c1-c1ccc(Cl)cc1/C2=C/c1ccc(Cl)cc1 (stereo not drawn) [Lumefantrine, lumefantrine, reference compound]
Outgoing: 0.8

Incoming: Now consider CCN(CC)Cc1cc(Nc2ccnc3cc(Cl)ccc23)ccc1O [Amodiaquine, amodiaquine, reference compound] .
Outgoing: 1.2

Incoming: Now consider O=C(Nc1cc(CN2CCOCC2)ccc1O)c1cccc(Oc2cc(C(F)(F)F)ccn2)c1 [Compound 30] .
Outgoing: 11.8

Incoming: Now consider CN1CCN(Cc2ccc(O)c(NC(=O)c3cccc(Oc4cc(C(F)(F)F)ccn4)c3)c2)CC1 [Compound 31] .
Outgoing: 20.2

Incoming: Now consider OC(c1cc(C(F)(F)F)nc2c(C(F)(F)F)cccc12)C1CCCCN1 (stereo not drawn) [Mefloquine, mefloquine, reference compound] .
Outgoing: 0.8
